Assay: Growth inhibition of MLL-AF9 transformed mouse bone marrow cells after 7 days by MTT assay
Assay type: functional
Settings: Bone marrow cell, 168 h
# log10 of GI50 annotations
Heads up, the numbers here are log10 of GI50 in nM units.

Cc1c(CN2CCC(Nc3ncnc4sc(CC(F)(F)F)cc34)CC2)c(O)cc2[nH]c(C#N)cc12; 2.34
CO[C@H](CO)Cn1c(C#N)cc2cc(CN3CCC(Nc4ncnc5sc(CC(F)(F)F)cc45)CC3)ccc21; 2.82
Cc1c(CN2CCC(Nc3ncnc4sc(CC(F)(F)F)cc34)CC2)ccc2[nH]c(C#N)cc12; 2.30
COc1cc2c(cc(C#N)n2CCO)c(C)c1CN1CCC(Nc2ncnc3sc(CC(F)(F)F)cc23)CC1; 2.56
N#Cc1cc2cc(CN3CCC(Nc4ncnc5sc(CC(F)(F)F)cc45)CC3)ccc2n1C[C@@H](O)CO; 3.23

stdin: // query log10 of GI50 value for entry Cc1c(CN2CCC(Nc3ncnc4sc(CC(F)(F)F)cc34)CC2)ccc2c1cc(C#N)n2CC(N)=O
stdout: 2.67

stdin: Please give the measured log10 of GI50 for this compound: N#Cc1cc2cc(CN3CCC(Nc4ncnc5sc(CC(F)(F)F)cc45)CC3)ccc2n1C[C@H](O)CO
stdout: 3.58

stdin: Entry Cc1c(CN2CCC(Nc3ncnc4sc(CC(F)(F)F)cc34)CC2)c(O)cc2c1cc(C#N)n2CCO has what log10 of GI50?
stdout: 2.60

* * *

Biological target: Menin/Histone-lysine N-methyltransferase MLL (Homo sapiens)
Sequence (O00255 whole entry): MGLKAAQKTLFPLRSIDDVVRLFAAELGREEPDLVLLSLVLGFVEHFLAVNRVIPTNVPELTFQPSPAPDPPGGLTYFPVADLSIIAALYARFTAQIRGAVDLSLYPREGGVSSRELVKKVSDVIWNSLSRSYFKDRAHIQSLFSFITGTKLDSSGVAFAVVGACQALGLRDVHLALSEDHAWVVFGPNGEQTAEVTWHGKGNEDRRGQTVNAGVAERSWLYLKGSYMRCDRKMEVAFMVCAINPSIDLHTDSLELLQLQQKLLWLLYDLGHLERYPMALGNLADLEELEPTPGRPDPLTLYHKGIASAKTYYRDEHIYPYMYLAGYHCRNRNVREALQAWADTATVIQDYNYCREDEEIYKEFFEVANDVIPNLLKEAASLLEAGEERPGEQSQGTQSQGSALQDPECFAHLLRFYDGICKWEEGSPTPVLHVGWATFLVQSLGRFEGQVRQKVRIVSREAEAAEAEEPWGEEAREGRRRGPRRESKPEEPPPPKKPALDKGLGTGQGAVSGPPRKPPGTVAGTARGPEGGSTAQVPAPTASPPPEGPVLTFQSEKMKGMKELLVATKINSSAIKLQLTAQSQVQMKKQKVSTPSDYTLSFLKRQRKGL
Sequence (Q03164 1-2718 partner limits assumed): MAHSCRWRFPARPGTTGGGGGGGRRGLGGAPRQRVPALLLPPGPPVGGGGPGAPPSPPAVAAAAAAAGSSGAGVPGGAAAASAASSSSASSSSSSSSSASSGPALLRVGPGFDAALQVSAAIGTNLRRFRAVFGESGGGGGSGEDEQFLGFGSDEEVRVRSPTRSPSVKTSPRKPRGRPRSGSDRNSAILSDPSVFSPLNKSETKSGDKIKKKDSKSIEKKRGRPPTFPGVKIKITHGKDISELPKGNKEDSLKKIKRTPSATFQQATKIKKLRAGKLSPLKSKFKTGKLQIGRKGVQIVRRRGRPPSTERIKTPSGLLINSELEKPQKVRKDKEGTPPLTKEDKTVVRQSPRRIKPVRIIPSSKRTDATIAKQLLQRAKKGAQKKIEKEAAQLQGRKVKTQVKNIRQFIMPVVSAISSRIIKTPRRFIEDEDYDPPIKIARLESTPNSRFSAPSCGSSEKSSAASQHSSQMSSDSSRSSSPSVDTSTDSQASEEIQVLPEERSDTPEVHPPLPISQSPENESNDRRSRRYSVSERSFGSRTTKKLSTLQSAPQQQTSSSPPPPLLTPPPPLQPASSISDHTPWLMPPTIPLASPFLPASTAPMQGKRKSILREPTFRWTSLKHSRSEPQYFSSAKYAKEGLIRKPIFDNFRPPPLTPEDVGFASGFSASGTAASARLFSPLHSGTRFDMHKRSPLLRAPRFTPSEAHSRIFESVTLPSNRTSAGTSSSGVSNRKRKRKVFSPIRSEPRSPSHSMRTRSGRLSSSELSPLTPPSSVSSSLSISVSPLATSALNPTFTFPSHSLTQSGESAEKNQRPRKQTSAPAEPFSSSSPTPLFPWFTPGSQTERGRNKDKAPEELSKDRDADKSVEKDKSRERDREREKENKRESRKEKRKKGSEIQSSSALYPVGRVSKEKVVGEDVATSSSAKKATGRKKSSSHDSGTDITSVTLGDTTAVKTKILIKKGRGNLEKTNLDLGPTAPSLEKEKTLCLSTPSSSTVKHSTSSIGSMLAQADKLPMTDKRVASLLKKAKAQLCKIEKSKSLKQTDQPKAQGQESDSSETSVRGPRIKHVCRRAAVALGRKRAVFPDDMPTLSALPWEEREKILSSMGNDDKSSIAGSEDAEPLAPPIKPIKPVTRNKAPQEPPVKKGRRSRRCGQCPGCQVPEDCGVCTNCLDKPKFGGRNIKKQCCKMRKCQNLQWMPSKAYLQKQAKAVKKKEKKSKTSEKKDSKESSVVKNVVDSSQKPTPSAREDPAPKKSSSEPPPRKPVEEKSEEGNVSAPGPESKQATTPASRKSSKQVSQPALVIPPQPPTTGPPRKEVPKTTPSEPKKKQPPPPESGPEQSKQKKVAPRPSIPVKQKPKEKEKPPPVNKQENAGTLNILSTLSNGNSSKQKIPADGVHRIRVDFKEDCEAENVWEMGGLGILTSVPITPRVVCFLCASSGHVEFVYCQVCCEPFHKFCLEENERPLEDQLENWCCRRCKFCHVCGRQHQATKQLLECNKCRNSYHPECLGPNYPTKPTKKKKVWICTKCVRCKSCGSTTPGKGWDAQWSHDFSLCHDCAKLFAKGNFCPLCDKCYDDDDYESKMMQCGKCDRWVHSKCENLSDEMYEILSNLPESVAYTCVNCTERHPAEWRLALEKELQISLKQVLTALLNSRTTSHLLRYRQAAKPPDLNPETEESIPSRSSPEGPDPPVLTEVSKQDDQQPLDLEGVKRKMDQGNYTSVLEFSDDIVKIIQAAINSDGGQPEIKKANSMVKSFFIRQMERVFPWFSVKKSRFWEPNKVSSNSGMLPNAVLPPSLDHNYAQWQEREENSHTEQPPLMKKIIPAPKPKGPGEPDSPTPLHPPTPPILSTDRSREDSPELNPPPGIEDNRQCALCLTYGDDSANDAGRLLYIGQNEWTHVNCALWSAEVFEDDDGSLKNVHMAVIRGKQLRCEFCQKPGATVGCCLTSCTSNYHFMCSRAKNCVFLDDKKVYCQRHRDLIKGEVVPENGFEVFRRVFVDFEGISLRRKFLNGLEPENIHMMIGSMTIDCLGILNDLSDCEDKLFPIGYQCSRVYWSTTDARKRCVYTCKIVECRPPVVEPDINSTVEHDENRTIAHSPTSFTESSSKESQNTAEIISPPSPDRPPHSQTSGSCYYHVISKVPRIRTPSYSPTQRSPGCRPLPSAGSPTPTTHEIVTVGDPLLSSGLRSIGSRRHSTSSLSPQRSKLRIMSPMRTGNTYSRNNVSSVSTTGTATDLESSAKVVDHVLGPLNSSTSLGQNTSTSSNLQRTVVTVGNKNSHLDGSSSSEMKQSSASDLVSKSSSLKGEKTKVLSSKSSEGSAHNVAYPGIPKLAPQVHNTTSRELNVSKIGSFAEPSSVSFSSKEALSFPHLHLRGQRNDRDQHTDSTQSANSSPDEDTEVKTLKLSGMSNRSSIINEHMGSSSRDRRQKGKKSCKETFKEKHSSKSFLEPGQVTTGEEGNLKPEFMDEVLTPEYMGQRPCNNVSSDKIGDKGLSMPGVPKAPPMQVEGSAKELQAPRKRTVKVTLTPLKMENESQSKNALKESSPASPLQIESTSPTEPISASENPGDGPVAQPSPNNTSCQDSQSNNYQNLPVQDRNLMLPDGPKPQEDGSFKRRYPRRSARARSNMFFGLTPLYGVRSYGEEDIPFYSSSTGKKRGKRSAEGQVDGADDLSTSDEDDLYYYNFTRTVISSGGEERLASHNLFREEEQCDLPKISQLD
Sequence (Q03164 2719-3969 partner limits assumed): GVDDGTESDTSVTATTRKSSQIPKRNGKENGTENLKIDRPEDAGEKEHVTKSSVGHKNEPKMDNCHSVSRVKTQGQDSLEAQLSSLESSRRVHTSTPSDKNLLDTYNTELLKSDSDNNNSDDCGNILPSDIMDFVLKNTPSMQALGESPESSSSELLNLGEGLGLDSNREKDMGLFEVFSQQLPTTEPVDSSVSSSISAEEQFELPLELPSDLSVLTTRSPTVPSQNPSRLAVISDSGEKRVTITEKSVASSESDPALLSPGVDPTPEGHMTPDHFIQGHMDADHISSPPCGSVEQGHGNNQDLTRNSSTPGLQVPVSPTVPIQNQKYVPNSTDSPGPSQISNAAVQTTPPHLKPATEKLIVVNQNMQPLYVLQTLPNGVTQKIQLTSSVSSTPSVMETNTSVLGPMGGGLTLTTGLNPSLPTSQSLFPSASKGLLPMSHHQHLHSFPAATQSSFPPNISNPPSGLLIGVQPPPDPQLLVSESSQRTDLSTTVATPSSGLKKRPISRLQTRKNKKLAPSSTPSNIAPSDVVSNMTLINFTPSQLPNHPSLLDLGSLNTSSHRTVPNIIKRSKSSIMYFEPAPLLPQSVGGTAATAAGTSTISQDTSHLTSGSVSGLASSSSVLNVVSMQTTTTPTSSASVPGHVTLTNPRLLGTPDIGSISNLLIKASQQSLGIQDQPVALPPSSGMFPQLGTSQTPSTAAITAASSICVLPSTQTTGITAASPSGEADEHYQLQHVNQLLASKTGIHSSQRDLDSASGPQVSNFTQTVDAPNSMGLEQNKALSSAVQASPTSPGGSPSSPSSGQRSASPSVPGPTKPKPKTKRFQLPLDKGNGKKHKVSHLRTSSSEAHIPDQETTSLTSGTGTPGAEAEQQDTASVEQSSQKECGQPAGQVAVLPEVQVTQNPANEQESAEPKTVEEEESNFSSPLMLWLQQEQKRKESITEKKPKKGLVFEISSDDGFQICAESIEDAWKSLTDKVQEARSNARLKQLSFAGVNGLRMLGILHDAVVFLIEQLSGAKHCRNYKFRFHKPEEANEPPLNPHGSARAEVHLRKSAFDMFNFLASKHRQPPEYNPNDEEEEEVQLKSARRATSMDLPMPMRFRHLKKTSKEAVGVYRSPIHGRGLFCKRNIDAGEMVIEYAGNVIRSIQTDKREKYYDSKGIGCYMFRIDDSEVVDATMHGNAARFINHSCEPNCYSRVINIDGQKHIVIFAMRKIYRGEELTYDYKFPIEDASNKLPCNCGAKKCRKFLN
Experiment: Inhibition of menin-MLL interaction (unknown origin) after 1 hr by fluorescence polarization assay
# TRUE = IC50 below 30 nM (exclusive); FALSE = IC50 at/above 30 nM

stdin: Say whether its IC50 is strictly beneath 30 nM. Entry: COc1cc2c(cc(C#N)n2CC(N)=O)c(C)c1CN1CCC(Nc2ncnc3sc(CC(F)(F)F)cc23)CC1
stdout: FALSE

stdin: Strictly below 30 nM: is that where IC50 of N#Cc1cc2cc(CN3CCC(Nc4ncnc5sc(CC(F)(F)F)cc45)CC3)c(O)cc2n1Cc1cn[nH]c1 sits?
stdout: TRUE

stdin: I wonder whether COc1cc2[nH]c(C#N)cc2c(C)c1CN1CCC(Nc2ncnc3sc(CC(F)(F)F)cc23)CC1 has IC50 below 30 nM. Can you tell?
stdout: FALSE

stdin: Take the molecule Cc1c(C#N)[nH]c2ccc(CN3CCC(Nc4ncnc5sc(CC(F)(F)F)cc45)CC3)cc12 and say whether its IC50 is less than 30 nM.
stdout: FALSE

stdin: For N#Cc1cc2cc(CN3CCC(Nc4ncnc5sc(CC(F)(F)F)cc45)CC3)ccc2[nH]1 , is the recorded IC50 below the cut-off of 30 nM?
stdout: FALSE

stdin: Lab log: compare recorded IC50 with 30 nM; is it strictly lower for COc1cc2[nH]c(C#N)cc2cc1CN1CCC(Nc2ncnc3sc(CC(F)(F)F)cc23)CC1 ?
stdout: TRUE

stdin: Quick check: does COc1cc2c(cc(C#N)n2Cc2c[nH]nn2)c(C)c1CN1CCC(Nc2ncnc3sc(CC(F)(F)F)cc23)CC1 have IC50 under 30 nM?
stdout: TRUE

stdin: Is IC50 of N#Cc1[nH]c2ccc(CN3CCC(Nc4ncnc5sc(CC(F)(F)F)cc45)CC3)cc2c1N strictly below 30 nM?
stdout: FALSE

* * *

Experiment: Growth inhibition of MLL-AF9 transformed mouse bone marrow cells after 7 days by MTT assay
Assay type: functional
Conditions: Bone marrow cell, 168 h
API: label(entry) gives True if the entry's GI50 is strictly smaller than 1000 nM; on equality or larger values it gives False.

Some solved cases for reference:
Cc1c(CN2CCC(Nc3ncnc4sc(CC(F)(F)F)cc34)CC2)c(O)cc2c1cc(C#N)n2Cc1c[nH]nn1; True
N#Cc1cc2cc(CN3CCC(Nc4ncnc5sc(CC(F)(F)F)cc45)CC3)c(O)cc2[nH]1; True
N#Cc1cc2cc(CN3CCC(Nc4ncnc5sc(CC(F)(F)F)cc45)CC3)ccc2n1CCO; False
N#Cc1[nH]c2ccc(CN3CCC(Nc4ncnc5sc(CC(F)(F)F)cc45)CC3)cc2c1F; False
N#Cc1cc2c(Cl)c(CN3CCC(Nc4ncnc5sc(CC(F)(F)F)cc45)CC3)ccc2[nH]1; False

stdin: Is the reported GI50 for N#Cc1cc2cc(CN3CCC(Nc4ncnc5sc(CC(F)(F)F)cc45)CC3)ccc2n1CC(O)CO (racemic) strictly below 1000 nM?
stdout: False

stdin: Given COCC(O)Cn1c(C#N)cc2cc(CN3CCC(Nc4ncnc5sc(CC(F)(F)F)cc45)CC3)ccc21 (centres undefined) , is recorded GI50 strictly lower than 1000 nM?
stdout: False

stdin: Please let me know if N#Cc1cc2cc(CN3CCC(Nc4ncnc5sc(CC(F)(F)F)cc45)CC3)ccc2[nH]1 shows GI50 below 1000 nM.
stdout: True

stdin: Please indicate whether the reported GI50 of Cc1c(CN2CCC(Nc3ncnc4sc(CC(F)(F)F)cc34)CC2)ccc2c1cc(C#N)n2Cc1c[nH]nn1 is strictly below 1000 nM.
stdout: True
